Reference source: PubChem BioAssay AID1159580

- assay text: chemical genetic growth profiling, strain panel (AID 1159580);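 further: tested at 20 µM; growth read once vehicle control cultures reached saturation at 30 °C; lower values mean less growth of the strain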
- condition label: S. cerevisiae deletion strains, growth OD, locus YBR229C, strain ROT2
In all, about 5,500 compounds went through this assay and about 2,000 (36%) were called active. Not shown: some 18% with an inconclusive outcome. No stated cut-off is given here; in the data, active means normalized growth mostly below about 0.91 (no sharp cut-off); inconclusive means no clear call, values can overlap the other calls; inactive means mostly above about 0.92. Some of the results follow.
Reply using exactly one outcome from active, inactive

>  <compound>
COc1c(C(C)C)oc2cc3oc(=O)ccc3cc12

>  <answer label>
inactive

$$$$
>  <compound>
O=[N+]([O-])c1ccc(Oc2cccc3cccnc23)cc1

>  <answer label>
inactive

$$$$
>  <compound>
CC1(C)O[C@H]2CC(=O)OC[C@]23[C@H]2CC[C@@]4(C)[C@H](c5ccoc5)OC(=O)[C@H]5O[C@]54[C@]2(C)C(=O)C[C@@H]13

>  <answer label>
inactive

$$$$

Request: Call for entry CC1(C)C2CC(=O)[C@]3(C)C(CC[C@@]4(C)[C@H](c5ccoc5)OC(=O)C5OC543)[C@@]2(C)[C@@H](O)C[C@H]1O (stereo partly specified) :
Result: inactive

Request: Call for entry COc1ccc(-c2cc(=O)c3c(O)cc(O[C@H]4O[C@H](CO[C@@H]5O[C@@H](C)[C@H](O)[C@@H](O)[C@H]5O)[C@@H](O)[C@H](O)[C@H]4O)cc3o2)cc1 :
Result: inactive

Request: Call for entry CCN(CC)C(=O)c1[nH]c(C)c(C)c1C :
Result: inactive

Request: Call for entry CC(=O)O[C@@H]1CC(=O)[C@@]2(C)C(CC(=O)[C@]3(C)C2CC[C@@]2(C)[C@H](c4ccoc4)OC(=O)C4OC423)C1(C)C (stereo partly specified) :
Result: inactive
